Values from patent US20180201592A1

tested on: C. parapsilosis; assay: Minimum inhibitory concentration, RPMI medium; format: cell-based; conditions: banded MIC grade
EXPERIMENTAL READOUT: MIC grade, C. PARAPSILOSIS, RPMI media

Worked set:
{"columns": ["COMPOUND", "EXPERIMENTAL READOUT", "RESULT"],
 "data": [
  ["NC1=NNC2=C(CCCC2)S1", "MIC grade, C. PARAPSILOSIS, RPMI media", "1 (1: ≥20 mg/L)"],
  ["CC(C)OC(=O)CC1=NN=C(N)SC1", "MIC grade, C. PARAPSILOSIS, RPMI media", "2 (2: 5-20 mg/L)"],
  ["NC1=NN=C(c2ccccc2)CS1", "MIC grade, C. PARAPSILOSIS, RPMI media", "1 (1: ≥20 mg/L)"]
]}

Qu. Query MIC grade, C. PARAPSILOSIS, RPMI media for "NC1=NN=C(CCOCCOc2ccccc2)CS1"
Ans. 4 (4: <1 mg/L)

Qu. Query MIC grade, C. PARAPSILOSIS, RPMI media for "CCCCc1ccc(COCCCCC2=NN=C(N)SC2)cc1"
Ans. 3 (3: 1-5 mg/L)

----------
tested on: A. flavus; test: Minimum inhibitory concentration, RPMI medium; format: cell-based; conditions: banded MIC grade
EXPERIMENTAL READOUT: MIC grade, A. FLAVUS, RPMI media

{"columns": ["SMILES CODE", "EXPERIMENTAL READOUT", "RESULT"],
 "data": [
  ["NC1=NN=C(CCCCCOc2ccccn2)CS1", "MIC grade, A. FLAVUS, RPMI media", "4 (4: <1 mg/L)"],
  ["NC1=NN=C(CCCCOCc2cccc(CCc3ccccc3)c2)CS1", "MIC grade, A. FLAVUS, RPMI media", "2 (2: 5-20 mg/L)"],
  ["CCCCc1ccc(COCCCCC2=NN=C(N)SC2)cc1", "MIC grade, A. FLAVUS, RPMI media", "2 (2: 5-20 mg/L)"],
  ["CC(=O)OCCCCC1=NN=C(N)SC1", "MIC grade, A. FLAVUS, RPMI media", "3 (3: 1-5 mg/L)"],
  ["NC1=NN=C(CCCCOCc2ccccc2CCc2ccccc2)CS1", "MIC grade, A. FLAVUS, RPMI media", "1 (1: ≥20 mg/L)"]
]}

Qu. Query MIC grade, A. FLAVUS, RPMI media for "NC1=NN=C(CCCCOCc2cc(Cl)cc(Cl)c2)CS1"
Ans. 2 (2: 5-20 mg/L)

Qu. Query MIC grade, A. FLAVUS, RPMI media for "NC1=NN=C(CCOCCOc2ccccc2)CS1"
Ans. 3 (3: 1-5 mg/L)

Qu. Query MIC grade, A. FLAVUS, RPMI media for "NC1=NN=C(CCCCOCc2ccc(F)cc2F)CS1"
Ans. 4 (4: <1 mg/L)

----------
system: C. parapsilosis; assay: Minimum inhibitory concentration, RPMI medium; type: cell-based; details: banded MIC grade
// reported MIC grade, C. PARAPSILOSIS, RPMI media for each item listed

Worked set:
{"columns": ["SMILES CODE", "TEST SYSTEM", "EXPERIMENTAL READOUT", "RESULT"],
 "data": [
  ["CCCCOC(=O)CC1=NN=C(N)SC1", "C. parapsilosis", "MIC grade, C. PARAPSILOSIS, RPMI media", "3 (3: 1-5 mg/L)"],
  ["Cc1ccc(COCCC2=NN=C(N)SC2)cc1", "C. parapsilosis", "MIC grade, C. PARAPSILOSIS, RPMI media", "3 (3: 1-5 mg/L)"],
  ["NC1=NN=C(COc2ccccc2)CS1", "C. parapsilosis", "MIC grade, C. PARAPSILOSIS, RPMI media", "4 (4: <1 mg/L)"],
  ["CCCOc1ccc(CCC2=NN=C(N)SC2)cc1", "C. parapsilosis", "MIC grade, C. PARAPSILOSIS, RPMI media", "4 (4: <1 mg/L)"],
  ["NC1=NN=C(CCCCCOc2ccccn2)CS1", "C. parapsilosis", "MIC grade, C. PARAPSILOSIS, RPMI media", "4 (4: <1 mg/L)"]
]}

Qu. Provide MIC grade, C. PARAPSILOSIS, RPMI media, tested on C. parapsilosis, for "COCCCCCC1=NN=C(N)SC1" .
Ans. 4 (4: <1 mg/L)

Qu. Provide MIC grade, C. PARAPSILOSIS, RPMI media, tested on C. parapsilosis, for "NC1=NN=C(CCOC2CCCCC2)CS1" .
Ans. 2 (2: 5-20 mg/L)

----------
system: Aspergillus fumigatus; assay: Minimum inhibitory concentration, YAG medium; assay type: cell-based; conditions: banded MIC grade
// reported MIC grade, A. FUMIGATUS, YAG media for each item listed

{"columns": ["SMILES CODE", "RESULT"],
 "data": [
  ["COc1ccc(C2=NN=C(N)SC2)cc1", "2 (2: 1-5 mg/L)"]
]}

Qu. Query MIC grade, A. FUMIGATUS, YAG media for "NC1=NN=C(CCOCc2ccccc2)CS1"
Ans. 3 (3: 0.2-1 mg/L)

Qu. Query MIC grade, A. FUMIGATUS, YAG media for "NC1=NN=C(CCCCCC(=O)O)CS1"
Ans. 2 (2: 1-5 mg/L)

Qu. Query MIC grade, A. FUMIGATUS, YAG media for "NC1=NN=C(CCCCOCc2cccc(Oc3ccccc3)c2)CS1"
Ans. 1 (1: ≥5 mg/L)

Qu. Query MIC grade, A. FUMIGATUS, YAG media for "NC1=NN=C(CCCCOCc2c(F)cccc2Cl)CS1"
Ans. 3 (3: 0.2-1 mg/L)

Qu. Query MIC grade, A. FUMIGATUS, YAG media for "NC1=NN=C(CCCCOCCc2ccccc2)CS1"
Ans. 3 (3: 0.2-1 mg/L)

Qu. Query MIC grade, A. FUMIGATUS, YAG media for "CCCCOC(=O)CC1=NN=C(N)SC1"
Ans. 2 (2: 1-5 mg/L)

Qu. Query MIC grade, A. FUMIGATUS, YAG media for "NC1=NN=C(CCCCOCc2cc(F)cc(F)c2)CS1"
Ans. 4 (4: <0.2 mg/L)

Qu. Query MIC grade, A. FUMIGATUS, YAG media for "CCc1ccc(OCCCCCC2=NN=C(N)SC2)cc1"
Ans. 3 (3: 0.2-1 mg/L)

Qu. Query MIC grade, A. FUMIGATUS, YAG media for "NC1=NN=C(CCCCOCc2ccc(Cl)cc2F)CS1"
Ans. 4 (4: <0.2 mg/L)

Qu. Query MIC grade, A. FUMIGATUS, YAG media for "CCCCc1ccc(COCCCCC2=NN=C(N)SC2)cc1"
Ans. 1 (1: ≥5 mg/L)

Qu. Query MIC grade, A. FUMIGATUS, YAG media for "N#Cc1ccc(COCCC2=NN=C(N)SC2)cc1"
Ans. 4 (4: <0.2 mg/L)

Qu. Query MIC grade, A. FUMIGATUS, YAG media for "NC1=NN=C(CCCCOCc2ccc(Br)cc2)CS1"
Ans. 4 (4: <0.2 mg/L)

----------
// reported MIC grade, C. PARAPSILOSIS, RPMI media for each item listed
test system: C. parapsilosis; assay: Minimum inhibitory concentration, RPMI medium; format: cell-based; conditions: banded MIC grade

Worked set:
{"columns": ["SMILES CODE", "RESULT"],
 "data": [
  ["NC1=NN=C(CCCCOCc2cc(F)cc(F)c2)CS1", "4 (4: <1 mg/L)"],
  ["CCc1ccc(OCCCCCC2=NN=C(N)SC2)cc1", "4 (4: <1 mg/L)"],
  ["NC1=NN=C(CCCCCCc2ccccc2)CS1", "4 (4: <1 mg/L)"],
  ["COc1ccc(COCCC2=NN=C(N)SC2)cc1", "3 (3: 1-5 mg/L)"],
  ["CCCCC/C=C/C1=NN=C(N)SC1", "2 (2: 5-20 mg/L)"],
  ["NC1=NN=C(CCOc2ccccc2)CS1", "4 (4: <1 mg/L)"]
]}

Qu. Query MIC grade, C. PARAPSILOSIS, RPMI media for "NC1=NN=C(CCCCOCc2cc(Cl)cc(Cl)c2)CS1"
Ans. 3 (3: 1-5 mg/L)

----------
// reported MIC grade, A. FLAVUS, YAG media for each item listed
tested on: Aspergillus flavus; assay: Minimum inhibitory concentration, YAG medium; assay type: cell-based; conditions: banded MIC grade

Worked set:
{"columns": ["SMILES CODE", "RESULT"],
 "data": [
  ["COC(=O)CC1=NN=C(N)SC1", "2 (2: 1-5 mg/L)"],
  ["NC1=NN=C(CCOc2ccc(-c3ccccc3)cc2)CS1", "2 (2: 1-5 mg/L)"],
  ["NC1=NN=C(CCCCOCc2ccc(F)cc2F)CS1", "4 (4: <0.2 mg/L)"],
  ["NC1=NN=C(CCCCOCc2ccc(Cl)cc2F)CS1", "4 (4: <0.2 mg/L)"],
  ["NC1=NN=C(CCCCOCc2ccccc2)CS1", "4 (4: <0.2 mg/L)"]
]}

Qu. Provide MIC grade, A. FLAVUS, YAG media, tested on Aspergillus flavus, for "NC1=NN=C(COc2ccccc2)CS1" .
Ans. 4 (4: <0.2 mg/L)

Qu. Provide MIC grade, A. FLAVUS, YAG media, tested on Aspergillus flavus, for "NC1=NN=C(c2ccc(Cl)c(Cl)c2)CS1" .
Ans. 1 (1: ≥5 mg/L)

Qu. Provide MIC grade, A. FLAVUS, YAG media, tested on Aspergillus flavus, for "CCCCC/C=C/C1=NN=C(N)SC1" .
Ans. 2 (2: 1-5 mg/L)

Qu. Provide MIC grade, A. FLAVUS, YAG media, tested on Aspergillus flavus, for "NC1=NN=C(CCOCCCc2ccccc2)CS1" .
Ans. 4 (4: <0.2 mg/L)
